- SYSTEM_UNDER_TEST: Protein kinase C theta type (Homo sapiens) (UniProt Q04759);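 further: reported figure is the mean percent inhibition of PKC-theta, from the GSK PKIS screen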
- Sequence (Q04759 whole entry, looked up): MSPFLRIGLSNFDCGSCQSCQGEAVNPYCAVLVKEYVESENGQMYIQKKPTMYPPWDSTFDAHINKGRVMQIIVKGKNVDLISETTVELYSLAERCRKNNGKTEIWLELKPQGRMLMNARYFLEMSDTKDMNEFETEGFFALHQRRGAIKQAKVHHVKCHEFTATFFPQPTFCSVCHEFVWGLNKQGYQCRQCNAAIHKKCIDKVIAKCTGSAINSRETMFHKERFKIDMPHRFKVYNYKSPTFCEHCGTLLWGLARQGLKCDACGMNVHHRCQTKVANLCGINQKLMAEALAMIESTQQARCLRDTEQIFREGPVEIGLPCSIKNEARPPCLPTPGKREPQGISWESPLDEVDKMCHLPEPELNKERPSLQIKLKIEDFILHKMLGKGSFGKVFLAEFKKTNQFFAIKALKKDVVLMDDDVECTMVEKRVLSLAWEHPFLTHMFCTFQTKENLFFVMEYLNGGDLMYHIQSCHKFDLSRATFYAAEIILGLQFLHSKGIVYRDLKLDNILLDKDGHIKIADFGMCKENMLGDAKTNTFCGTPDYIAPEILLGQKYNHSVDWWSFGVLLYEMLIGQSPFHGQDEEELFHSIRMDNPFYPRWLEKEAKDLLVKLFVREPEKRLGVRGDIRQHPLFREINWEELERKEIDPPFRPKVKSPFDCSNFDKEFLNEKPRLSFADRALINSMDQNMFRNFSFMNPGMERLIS
- SETTINGS: at 0.1 µM
OBSERVED_PROPERTY: inhibition (%)
Expressed in %, but write only the number.

Supply inhibition value. Item: Nc1ccc(C#Cc2cncnc2Nc2ccc(OCc3cccc(F)c3)c(Cl)c2)cc1 1.3

Supply inhibition value. Item: [O-][S+]1CCN(Cc2ccc(-c3ccc4ncnc(Nc5ccc(OCc6ccccc6)c(Cl)c5)c4c3)o2)CC1 1.06

Supply inhibition value. Item: CC(C)c1ccc2c(c1)NC(=O)/C2=N/Nc1ccc(S(N)(=O)=O)cc1 -0.41

Supply inhibition value. Item: NS(=O)(=O)c1ccc(N/N=C2\C(=O)Nc3ccc(Cl)cc32)cc1 2.29

Supply inhibition value. Item: Cc1ccc2c(-c3ccnc(Nc4ccc5c(c4)OCCO5)n3)c(-c3ccc(C(F)(F)F)cc3)nn2n1 1.61

Supply inhibition value. Item: Oc1cccc(-c2nc(-c3ccccc3)[nH]c2-c2ccncc2)c1 2.11

Supply inhibition value. Item: c1ccc(Cc2nc3ccc(Nc4ncnc5ccccc45)cc3[nH]2)cc1 1.76

Supply inhibition value. Item: COc1cc2ncnc(Nc3ccc(C)c(O)c3)c2cc1OC 3.41

Supply inhibition value. Item: O=C1Nc2ccc(-c3cccnc3)cc2C1=Cc1cc(Br)c(O)c(Br)c1 1.77

Supply inhibition value. Item: Cc1ccc(NC(=O)CC2CC2)cc1-c1ccc(C(=O)NCC2CC2)cc1 2.09

Supply inhibition value. Item: O=S(=O)(CCOCc1ccc(-c2ccc3ncnc(Nc4ccc(OCc5cccc(F)c5)c(Cl)c4)c3c2)o1)c1ccccc1 0.62

Supply inhibition value. Item: Cc1ccc(C(=O)NC2CC2)cc1-c1ccc2[nH]ncc2c1 -1.64

Supply inhibition value. Item: NS(=O)(=O)c1ccc(-c2cc3ccncc3cc2OCc2ccccc2)cc1 1.18

Supply inhibition value. Item: COC(=O)c1cncc(/C=C/c2c(C)cc(O)cc2C)c1 2.55

Supply inhibition value. Item: Cc1ccc(Nc2ccnc(Nc3cccc(C(N)=O)c3)n2)cc1O 0.93

Supply inhibition value. Item: CCCN1CCCC(c2ccc(Nc3nc(Nc4cc(F)ccc4C(N)=O)c4cc[nH]c4n3)c(OC)c2)C1 (configuration not stated) 1.64

Supply inhibition value. Item: Cc1nc(-c2ccccc2)n2nc(NCCCN3CCOCC3)ncc12 1.47

---

- SYSTEM_UNDER_TEST: Tyrosine-protein kinase ABL2 (Homo sapiens) (UniProt P42684)
- Sequence (P42684 whole entry): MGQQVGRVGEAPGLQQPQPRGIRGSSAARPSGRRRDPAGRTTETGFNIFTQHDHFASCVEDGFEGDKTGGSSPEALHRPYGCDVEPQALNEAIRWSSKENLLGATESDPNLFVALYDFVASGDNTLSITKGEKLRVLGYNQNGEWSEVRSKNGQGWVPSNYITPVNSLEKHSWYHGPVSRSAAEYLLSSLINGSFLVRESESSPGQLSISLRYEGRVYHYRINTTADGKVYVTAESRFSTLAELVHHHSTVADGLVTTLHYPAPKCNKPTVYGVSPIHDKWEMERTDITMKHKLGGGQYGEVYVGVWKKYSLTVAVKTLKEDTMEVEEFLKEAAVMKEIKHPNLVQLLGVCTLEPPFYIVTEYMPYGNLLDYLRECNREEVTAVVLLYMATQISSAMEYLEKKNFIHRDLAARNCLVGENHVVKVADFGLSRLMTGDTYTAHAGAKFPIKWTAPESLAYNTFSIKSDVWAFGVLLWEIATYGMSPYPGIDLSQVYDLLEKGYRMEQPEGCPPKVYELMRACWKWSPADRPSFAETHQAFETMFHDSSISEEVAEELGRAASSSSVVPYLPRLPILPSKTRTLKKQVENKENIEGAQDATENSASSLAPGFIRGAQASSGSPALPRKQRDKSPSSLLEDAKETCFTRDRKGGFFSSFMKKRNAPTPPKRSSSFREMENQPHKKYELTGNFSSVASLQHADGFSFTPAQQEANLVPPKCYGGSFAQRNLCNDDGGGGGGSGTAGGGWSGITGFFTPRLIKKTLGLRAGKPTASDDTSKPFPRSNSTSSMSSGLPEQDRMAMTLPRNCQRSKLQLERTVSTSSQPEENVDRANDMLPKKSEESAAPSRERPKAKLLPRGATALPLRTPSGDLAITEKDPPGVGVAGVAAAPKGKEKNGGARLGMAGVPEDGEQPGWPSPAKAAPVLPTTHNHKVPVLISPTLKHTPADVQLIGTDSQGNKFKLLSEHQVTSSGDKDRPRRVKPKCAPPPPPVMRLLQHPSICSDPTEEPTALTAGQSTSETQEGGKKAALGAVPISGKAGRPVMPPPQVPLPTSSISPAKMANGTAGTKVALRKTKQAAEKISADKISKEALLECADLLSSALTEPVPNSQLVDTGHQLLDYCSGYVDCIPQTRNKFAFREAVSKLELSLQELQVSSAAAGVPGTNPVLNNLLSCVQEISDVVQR
- SETTINGS: at 1 µM
- Description: GSK_PKIS: ARG mean inhibition at 1 uM [Nanosyn]
OBSERVED_PROPERTY: inhibition (%)
Expressed in %, but write only the number.

Supply inhibition value. Item: CCn1c(-c2nonc2N)nc2ccc(F)cc21 6.07

Supply inhibition value. Item: CN(C)C(=O)O[C@@H]1CN[C@@H](C#Cc2cc3ncnc(Nc4ccc(OCc5cccc(F)c5)c(Cl)c4)c3s2)C1 8.08

Supply inhibition value. Item: CN(C)C(=O)O[C@H]1CN[C@H](C#Cc2cc3ncnc(Nc4ccc(OCc5cccc(F)c5)c(Cl)c4)c3s2)C1 6.24

Supply inhibition value. Item: NS(=O)(=O)c1ccc(N/N=C2\C(=O)Nc3ccc(Cl)cc32)cc1 11.6

Supply inhibition value. Item: CN1CCN(C(=O)c2ccc(NC(=O)Nc3ccc(N(C)c4ccnc(Nc5ccc(CS(C)(=O)=O)cc5)n4)cc3)cc2)CC1 56.5

Data credit: ChEMBL document CHEMBL1961873
